Field: Percent Effect. Provide a value for each of the compounds that follow.
Target: Tyrosyl-tRNA synthetase, putative (Trypanosoma cruzi (strain CL Brener))
Sequence (whole entry): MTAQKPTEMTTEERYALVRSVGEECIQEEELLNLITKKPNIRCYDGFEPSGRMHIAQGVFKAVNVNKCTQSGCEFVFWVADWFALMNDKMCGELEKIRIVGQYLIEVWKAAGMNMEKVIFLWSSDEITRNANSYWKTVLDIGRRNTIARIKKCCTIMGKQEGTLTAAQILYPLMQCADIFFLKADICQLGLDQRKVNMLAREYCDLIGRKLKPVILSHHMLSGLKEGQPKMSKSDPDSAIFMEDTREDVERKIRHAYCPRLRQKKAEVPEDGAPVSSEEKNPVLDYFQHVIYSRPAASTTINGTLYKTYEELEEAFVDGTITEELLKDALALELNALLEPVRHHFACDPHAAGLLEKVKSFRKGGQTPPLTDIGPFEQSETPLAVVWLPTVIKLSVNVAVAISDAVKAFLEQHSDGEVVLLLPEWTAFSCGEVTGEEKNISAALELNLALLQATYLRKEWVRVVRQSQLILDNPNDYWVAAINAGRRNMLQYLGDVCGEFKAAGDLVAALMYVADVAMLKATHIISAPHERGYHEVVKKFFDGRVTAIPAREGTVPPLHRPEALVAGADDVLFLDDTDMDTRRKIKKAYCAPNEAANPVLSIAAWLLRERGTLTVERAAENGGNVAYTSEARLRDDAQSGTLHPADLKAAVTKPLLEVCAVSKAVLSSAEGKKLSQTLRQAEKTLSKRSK
Experiment: Trypanosoma cruzi tyrosyl tRNA synthetase (TcYRS) SOP
Assay type: functional
Design: scale not given: direction of the effect not stated beside the values
Conditions: 30 µM
Numeric answer only, unit % assumed.

In: Return the recorded Percent Effect value; entry: CCC(O)CN1CCN(C(=O)c2cccn2Cc2ccccc2)CC1 (stereo not drawn)
Out: 11.4

In: Return the recorded Percent Effect value; entry: `O=C(Nc1ccc(N2CCCC2)nc1)N1CCc2ccccc2C1`
Out: 18.3

In: Return the recorded Percent Effect value; entry: O=C(c1cscn1)N1C[C@H]2CCCC(OCc3cccnc3)[C@H]2C1 (stereo partly drawn)
Out: 12.5

In: Return the recorded Percent Effect value; entry: `Cc1ccc(N(C)C2CCN(C(=O)c3ccsc3)CC2)nn1`
Out: 19.5

In: Return the recorded Percent Effect value; entry: COc1cccc(OC)c1CN1CCC2(CC(Nc3ccncn3)C2)C1 (stereo not drawn)
Out: 5

In: Return the recorded Percent Effect value; entry: O=C(c1ccc(-n2ccnc2)nc1)N1CCCC(n2cccn2)C1 (stereo not drawn)
Out: 9.76

In: Return the recorded Percent Effect value; entry: `CCC[C@@H]1CN(S(=O)(=O)c2ccc(C)c(F)c2)C[C@H]1N(C)C`
Out: 6.17

In: Return the recorded Percent Effect value; entry: `CCOc1ncccc1NC(=O)NC1CCN(S(C)(=O)=O)CC1`
Out: 4.71

In: Return the recorded Percent Effect value; entry: COc1cccc(CNC(CN2CCN(C)CC2)c2ccccc2)c1 (stereo not drawn)
Out: 3.7

In: Return the recorded Percent Effect value; entry: CC(C)CCC(C)NC(=O)c1ccc(OCC(N)=O)cc1 (stereo not drawn)
Out: 12.2

In: Return the recorded Percent Effect value; entry: Cc1nccn1Cc1nnc(C2CCCN(Cc3cccnc3)C2)n1C (stereo not drawn)
Out: 14.6

In: Return the recorded Percent Effect value; entry: `COC(=O)CN1CC(c2nc(Cc3ccccc3)no2)C1`
Out: 15

In: Return the recorded Percent Effect value; entry: `CC(C)NC(=O)N1C[C@H]2C[C@H](C(=O)NCc3ccccc3)[C@@H](C1)O2`
Out: 7.69

In: Return the recorded Percent Effect value; entry: CC(C)n1[nH]c(=O)c2c1NC(=O)CC2c1ccc2ncccc2c1 (stereo not drawn)
Out: 9.76

In: Return the recorded Percent Effect value; entry: `CC(C)N(Cc1nc2c(cnn2C)c(=O)[nH]1)c1ccccc1`
Out: 18.1

In: Return the recorded Percent Effect value; entry: O=C1CCSCC(C(=O)N2CCOCC2)N1 (stereo not drawn)
Out: 7.5

In: Return the recorded Percent Effect value; entry: `O=C(C1CC1)N1CCN(Cc2coc(-c3ccc(Cl)cc3)n2)CC1`
Out: 0

In: Return the recorded Percent Effect value; entry: CCC1CN(C(=O)c2ccc(=O)[nH]c2)CCC(=O)N1Cc1ccccc1 (stereo not drawn)
Out: 2.56

In: Return the recorded Percent Effect value; entry: CN(C)Cc1ccc(C2CCCCN2C(=O)c2cc(C3CC3)n[nH]2)cc1 (stereo not drawn)
Out: 9.76

In: Return the recorded Percent Effect value; entry: Cc1oc(-c2ccco2)nc1CC(=O)N1CCC(C(O)C(F)(F)F)CC1 (stereo not drawn)
Out: 9.41

In: Return the recorded Percent Effect value; entry: CN(Cc1ccccn1)C1COC2(CCN(Cc3cccnc3)CC2)C1 (stereo not drawn)
Out: 16.7

In: Return the recorded Percent Effect value; entry: `Cc1nc(C)c(C(=O)NCCNc2ncccc2C#N)s1`
Out: 28.2

In: Return the recorded Percent Effect value; entry: `CCOc1ccc(CN2CCN(C(=O)c3ccc(C)n3C)CC2)cc1`
Out: 15.4

In: Return the recorded Percent Effect value; entry: Cc1cccnc1NC(=O)C(C)Cn1nc(C(F)(F)F)cc1C (stereo not drawn)
Out: 2.56

In: Return the recorded Percent Effect value; entry: c1cn2c(n1)CN(CC1CC1)CC(CN1CCOCC1)C2 (stereo not drawn)
Out: 12.8

In: Return the recorded Percent Effect value; entry: Cc1cnn(CC2CCCCN2Cc2nnc(C3CC3)n2C)c1 (stereo not drawn)
Out: 5.06

In: Return the recorded Percent Effect value; entry: Cc1nc(C)n(CC2CCCN(CCOc3cccc(C#N)c3)C2)n1 (stereo not drawn)
Out: -1.24

In: Return the recorded Percent Effect value; entry: `O=C(C1CCC1)N1CCn2c(COc3ncccn3)nnc2C1`
Out: 5.13

In: Return the recorded Percent Effect value; entry: `CNC(=O)C1CCN(C(=O)c2cccn2Cc2cccs2)CC1`
Out: 9.76

In: Return the recorded Percent Effect value; entry: `Cc1cc(-c2cnn(CCNC(=O)C3CC3)c2C2CC2)on1`
Out: 0

In: Return the recorded Percent Effect value; entry: `O=C(O)c1cc(NS(=O)(=O)c2cccc(Cl)c2F)ccc1Cl`
Out: -12.2

In: Return the recorded Percent Effect value; entry: `CCCNC(=O)Nc1cc2c(cc1SC)OCCO2`
Out: 8.54

In: Return the recorded Percent Effect value; entry: `COCC(=O)N1CCN(Cc2coc(-c3cccc(F)c3)n2)CC1`
Out: 7.32

In: Return the recorded Percent Effect value; entry: `CCOCC(=O)N1C[C@@H](O)[C@H](N(C)Cc2ccc(OC)cc2)C1`
Out: 9.09

In: Return the recorded Percent Effect value; entry: `CCn1c(CN(C)C)nnc1C1CCN(c2ccnc(C)c2)CC1`
Out: 5.13

In: Return the recorded Percent Effect value; entry: `Cc1nc(CN2CCCN(CCOc3cccc(C#N)c3)CC2)no1`
Out: 11.1

In: Return the recorded Percent Effect value; entry: `Cc1cc(OCC(=O)NS(=O)(=O)c2c(C)noc2C)ccc1Cl`
Out: -1.21

In: Return the recorded Percent Effect value; entry: COc1cccc(C2CC(=O)Nc3nc(N)sc32)c1OC (stereo not drawn)
Out: -36.4

In: Return the recorded Percent Effect value; entry: CC(C)NC(=O)C1CN(C(N)=O)Cc2ccnn2C1 (stereo not drawn)
Out: 15

In: Return the recorded Percent Effect value; entry: `CN(C)c1cc2c(nn1)CCN(C(=O)Cc1noc3ccccc13)C2`
Out: -1.21

In: Return the recorded Percent Effect value; entry: `CCCn1ccc2ccc(NC(=O)N(C)CCOC)cc21`
Out: 5.2

In: Return the recorded Percent Effect value; entry: CCN(C(=O)COC)C(c1cccnc1)c1cc(C)cc(C)c1 (stereo not drawn)
Out: -8.64

In: Return the recorded Percent Effect value; entry: `Cc1ccc(C(=O)N2CCC3(CC2)CCN(CCN(C)C)C3=O)cn1`
Out: 7.5

In: Return the recorded Percent Effect value; entry: CCc1nc(C2CCCN(C(=O)c3cn(C)nc3C)C2)no1 (stereo not drawn)
Out: 13.4

In: Return the recorded Percent Effect value; entry: Cc1cc(C(=O)N2CCCCC2C)ccc1NCCCO (stereo not drawn)
Out: 7.32

In: Return the recorded Percent Effect value; entry: `Cc1nnc2n1CCN(Cc1csc(-c3ccc(F)cc3)n1)C2`
Out: 15.8

In: Return the recorded Percent Effect value; entry: Cc1ccc(CN2CCCC3(COCCN(Cc4c[nH]nn4)C3)C2)o1 (stereo not drawn)
Out: 10

In: Return the recorded Percent Effect value; entry: Cn1cnnc1C1CCCN(C(=O)c2ccccc2Cl)C1 (stereo not drawn)
Out: 25.9

* * *

species on record: Homo sapiens; assay: To identify inhibition of the IFN signalling (Jak-Stat) pathway via expression of an eGFP reporter gene under the control of an IFN-stimulated response element (ISRE) containing MxA promoter.; format: functional; parameters: scale not given: direction of the effect not stated beside the values; conditions: 30 µM
Experimental Endpoint: Percent Effect (%)
Numeric answer only, unit % assumed.

In: Return the recorded Percent Effect value; entry: `CC(=O)Nc1nc(C(=O)Nc2ccc(F)cc2)cs1`
Out: 8.03

In: Return the recorded Percent Effect value; entry: CCOC1COC2(CCN(Cc3ccc4c(c3)OCO4)CC2)C1 (configuration not stated)
Out: 17.9

In: Return the recorded Percent Effect value; entry: CC(O)CC(C)(C)CNC(=O)NCc1cccc(-n2ccnc2)c1 (configuration not stated)
Out: 18.3

In: Return the recorded Percent Effect value; entry: CC(C)c1nc(CN2CCN(CC3CCCO3)CC2)cs1 (configuration not stated)
Out: 17.1

In: Return the recorded Percent Effect value; entry: N#Cc1ccccc1OCCN1CCCC1Cn1cccn1 (configuration not stated)
Out: -12.9

In: Return the recorded Percent Effect value; entry: c1cnn(CCN2CCOC(Cn3cncn3)C2)c1 (configuration not stated)
Out: -0.00724

In: Return the recorded Percent Effect value; entry: `Cc1nsc(N2CCCN(c3nc(C4CC4)ns3)CC2)n1`
Out: 5.1

In: Return the recorded Percent Effect value; entry: `COc1cc(C)c(S(=O)(=O)NCc2cccnc2N(C)C)c(C)c1`
Out: 52.1

In: Return the recorded Percent Effect value; entry: `CCn1cc(CN(C)S(=O)(=O)c2cc(Cl)ccc2Cl)cn1`
Out: 2.3

In: Return the recorded Percent Effect value; entry: CC(C)c1nc(C2CCCN(C(=O)c3ccc4nccn4c3)C2)no1 (configuration not stated)
Out: -11.3

In: Return the recorded Percent Effect value; entry: `O=C(O)[C@]12CCCN(Cc3ccncc3)[C@@H]1CCN(c1cnccn1)C2`
Out: 22

In: Return the recorded Percent Effect value; entry: `Cc1cccc(CN2C[C@@H]3COC[C@]3(CNC(=O)c3ccsc3)C2)n1`
Out: -5.86
